Test system: corn
Assay: Test B pre/postemergence corn
Type: in vivo, Zea mays
Details: Preemergence, Rate 500 g/ha; scale 0 (no effect) to 10 (complete control)
valueKind: Corn plant response rating
Numbers only.

Below, each entry is followed by its recorded Corn plant response rating result.
Cc1c(Cl)cccc1-n1c(=O)on(C(=O)N(c2ccc(F)cc2)C(C)C)c1=O [Compound 21]: 0
Cc1ccccc1-n1c(=O)on(C(=O)N(c2ccc(C(F)(F)F)cc2)C(C)C)c1=O [Compound 39]: 0
Cc1ccccc1-n1c(=O)on(C(=O)N(c2ccc([N+](=O)[O-])cc2)C(C)C)c1=O [Compound 44]: 0
Cc1cccc(C)c1-n1c(=O)on(C(=O)N(c2ccc(Cl)cc2)C(C)C)c1=O [Compound 47]: 0

As a next step, examine the molecule that follows.
*Q* Quick one: Corn plant response rating of Cc1ccccc1Cn1c(=O)on(C(=O)N(c2ccc(F)cc2F)C(C)C)c1=O [Compound 87] ?
*A* 2

----------
Task for the reader: assign each of the following compounds its reported Redroot pigweed plant response rating.
Test system: pigweed
Assay: Test B pre/postemergence pigweed
Format: in vivo, Amaranthus retroflexus
Settings: Preemergence, Rate 500 g/ha; scale 0 to 10 (0 no effect, 10 complete control)
Answers are plain numbers.

CCn1c(=O)on(C(=O)N(c2ccccc2)C(C)C)c1=O: 10

For each entry beneath this line, provide reported Redroot pigweed plant response rating.
1. Cc1ccccc1-n1c(=O)on(C(=O)N(c2ccc(Br)cc2)C(C)C)c1=O
2. CCCn1c(=O)on(C(=O)N(c2ccc(F)cc2F)C(C)C)c1=O
3. CC(C)N(C(=O)n1oc(=O)n(C(C)(C)C)c1=O)c1ccc(Cl)cc1

*A*
[0, 10, 10]

----------
Could you please report measured Wheat plant response rating (0 to 10 scale) for the items listed next?
Tested on: wheat
Assay: Test B pre/postemergence wheat
Type: in vivo, Triticum aestivum
Details: Preemergence, Rate 125 g/ha
Answers are plain numbers.

Okay, here is my list. What is Wheat plant response rating (0 to 10 scale) for each of these?
1. CCN(C(=O)n1oc(=O)n(C2CCCCC2)c1=O)C1CCCCC1
2. Cc1nnsc1Cn1c(=O)on(C(=O)N(c2ccccc2)C(C)C)c1=O
3. CC(C)N(C(=O)n1oc(=O)n(N2C(C)CCCC2C)c1=O)c1ccc(F)cc1 (centres unmarked)
4. CCC(CC)n1c(=O)on(C(=O)N(c2ccccc2)C(C)C)c1=O
5. CC(C)N(C(=O)n1oc(=O)n(-c2ccc3ccccc3c2)c1=O)c1ccc(F)cc1
6. CC(C)n1c(=O)on(C(=O)N(c2ccc(Cl)cc2Cl)C2CCC2)c1=O
7. CC(C)N(C(=O)n1oc(=O)n(CCC#N)c1=O)c1ccc(F)cc1
8. CCCCCCn1c(=O)on(C(=O)N(c2ccc(F)cc2)C(C)C)c1=O

*A*
1: 0; 2: 0; 3: 0; 4: 0; 5: 0; 6: 0; 7: 2; 8: 0

Hi! Can you tell me Wheat plant response rating (0 to 10 scale) for each of these compounds?
1. Cc1nnsc1Cn1c(=O)on(C(=O)N(c2ccc(F)cc2)C(C)C)c1=O
2. CC(C)N(C(=O)n1oc(=O)n(-c2ccc3ccccc3c2)c1=O)c1ccc(Cl)cc1
3. CC(C)N(C(=O)n1oc(=O)n(CCl)c1=O)c1ccc(F)cc1

*A*
0
0
0

----------
Tested on: velvetleaf
Assay: Test B pre/postemergence velvetleaf
Assay type: in vivo, Abutilon theophrasti
Details: Rate 250 g/ha, Postemergence; scale 0 to 10, 0 is no effect, 10 is complete control
Description: […] At the same time, these crop and weed species were also treated with postemergence applications of test chemicals formulated in the same manner. […] Treated plants and controls were maintained in a greenhouse for twelve to sixteen days, after which all species were compared to controls and visually evaluated. […]
valueKind: Plant response rating, Velvetleaf
Answers are plain numbers.

CC(C)N(C(=O)n1oc(=O)n(Cc2ccccc2Cl)c1=O)c1ccc(F)cc1: 0
CC(C)N(C(=O)n1oc(=O)n(C(C)C)c1=O)c1ccc(Cl)cc1: 3
CCCn1c(=O)on(C(=O)N(c2ccc(F)cc2)C(C)C)c1=O: 3

*Q* Using the record for `Cc1nn(C)c(Cl)c1-n1c(=O)on(C(=O)N(c2ccccc2)C(C)C)c1=O` , report its Plant response rating, Velvetleaf.
*A* 4

----------
Test system: surinam grass
Assay: Test B pre/postemergence surinam grass
Type: in vivo, Brachiaria decumbens
Details: Preemergence, Rate 250 g/ha; scale of 0 to 10 where 0 is no effect and 10 is complete control
Field: Plant response rating, B. signalgrass. Provide a value for each of the compounds that follow.
One number for each entry.

Sample answers from the record:
Cc1cccc(C)c1-n1c(=O)on(C(=O)N(c2ccc(F)cc2)C(C)C)c1=O: 7
Cc1cccc(C)c1-n1c(=O)on(C(=O)N(c2ccc(Cl)cc2)C(C)C)c1=O: 0
CC(C)N(C(=O)n1oc(=O)n(C2CCCCC2)c1=O)c1ccc(F)cc1F: 4

Batch of 6 compounds: report Plant response rating, B. signalgrass for each.
1. CCN(C(=O)n1oc(=O)n(-c2c(C)cccc2C)c1=O)C1CCCCC1
2. Cc1nn(C)c(Cl)c1-n1c(=O)on(C(=O)N(c2ccc(F)cc2F)C(C)C)c1=O
3. Cc1cccc(Cl)c1-n1c(=O)on(C(=O)N(c2ccc(Cl)cc2)C(C)C)c1=O
4. Cc1ccccc1-n1c(=O)on(C(=O)N(c2ccc(C(F)(F)F)cc2)C(C)C)c1=O
5. Cc1cc(C)c(-n2c(=O)on(C(=O)N(c3ccc(F)cc3)C(C)C)c2=O)c(C)c1
6. Cc1ccccc1Cn1c(=O)on(C(=O)N(c2ccc(F)cc2F)C(C)C)c1=O

*A*
1. 0
2. 1
3. 0
4. 0
5. 0
6. 4

----------
System: crabgrass
Assay: Test B pre/postemergence crabgrass
Format: in vivo, Digitaria sanguinalis
Settings: Postemergence, Rate 62 g/ha; scale 0 to 10, 0 is no effect, 10 is complete control
valueKind: Plant response rating, Crabgrass
Answers are plain numbers.

CC(C)N(C(=O)n1oc(=O)n(CCN(C)C(=O)c2ccccc2)c1=O)c1ccc(F)cc1F [Compound 762]: 0
CC(C)N(C(=O)n1oc(=O)n(C[C@H](C)Cl)c1=O)c1ccc(Cl)cc1 [Compound 748]: 2
C=C(Cc1ccccc1)Cn1c(=O)on(C(=O)N(c2ccccc2)C(C)C)c1=O [Compound 650]: 0
C#CC(C)n1c(=O)on(C(=O)N(c2ccc(F)cc2F)C(C)C)c1=O (racemic) [Compound 657]: 3
C#CC(C)n1c(=O)on(C(=O)N(c2ccc(Cl)cc2)C(C)C)c1=O (racemic) [Compound 658]: 0

# batch: return Plant response rating, Crabgrass for each of the 2 compounds below
1. CC(C)N(C(=O)n1oc(=O)n(C(C)C)c1=O)c1ccncc1 [Compound 663]
2. CC[C@H](C)n1c(=O)on(C(=O)N(c2ccc(Cl)cc2)C(C)C)c1=O [Compound 664]

*A*
[0, 0]

I have 2 compounds here; please give me Plant response rating, Crabgrass for each one.
1. C#CCn1c(=O)on(C(=O)N(c2ccccc2)C(C)C)c1=O [Compound 754]
2. CCC(C)n1c(=O)on(C(=O)N(c2ccccc2)C(C)C)c1=O (stereo not shown) [Compound 610]

*A*
5
9

*Q* Test system crabgrass; read-out Plant response rating, Crabgrass; what value for C=C(C)Cn1c(=O)on(C(=O)N(c2ccccc2)C(C)C)c1=O [Compound 607] ?
*A* 5

----------
Could you please report measured Sugarbeets plant response rating for the items listed next?
System: sugar beet
Experiment: Test B pre/postemergence sugar beet
Assay type: in vivo, Beta vulgaris
Conditions: Postemergence, Rate 125 g/ha; scale of 0 to 10 where 0 is no effect and 10 is complete control
One number for each entry.

C#CC=CC(C)(C)n1c(=O)on(C(=O)N(c2ccccc2)C(C)C)c1=O: 0

Field: Sugarbeets plant response rating. Fill in for each record below.
1. CC(C)N(C(=O)n1oc(=O)n(C(C)C)c1=O)c1ccc(F)cc1
2. C=CCn1c(=O)on(C(=O)N(c2ccc(Cl)cc2)C(C)C)c1=O
3. CC(C)N(C(=O)n1oc(=O)n(C[C@H](C)Cl)c1=O)c1ccc(Cl)cc1
4. CC(C)N(C(=O)n1oc(=O)n(CC(F)F)c1=O)c1ccc(F)cc1

*A*
1. 3
2. 0
3. 2
4. 0

----------
System: cocklebur
Experiment: Test B pre/postemergence cocklebur
Assay type: in vivo, Xanthium strumarium
Conditions: Postemergence, Rate 250 g/ha; scale of 0 to 10, 0 is no effect, 10 is complete control
valueKind: Cocklebur plant response rating
Answers are plain numbers.

C=C(Cc1ccccc1)Cn1c(=O)on(C(=O)N(c2ccccc2)C(C)C)c1=O [Compound 650]: 0

Please state Cocklebur plant response rating for every compound in the list that follows.
1. C=C(Cl)Cn1c(=O)on(C(=O)N(c2ccc(F)cc2F)C(C)C)c1=O [Compound 634]
2. C#CC(C)n1c(=O)on(C(=O)N(c2ccc(F)cc2F)C(C)C)c1=O (racemic) [Compound 657]

*A*
1. 2
2. 4
